Field: Activity. Provide a value for each of the compounds that follow.
System: Escherichia coli
PROCEDURE_SUMMARY: Antibacterial activity against marA-overproducing Escherichia coli CR1000 harboring inactivated treC gene assessed as MarA-mediated multidrug resistance level by measuring fold change in MIC relative to MarA-deficient Escherichia coli CR2000
Assay type: functional
Numbers only, in %.

List reported Activity for each of these compounds:
1. CCn1cc(C(=O)O)c(=O)c2cc(F)c(N3CCNCC3)cc21 [NORFLOXACIN]
2. CO[C@@]1(NC(=O)Cc2cccs2)C(=O)N2C(C(=O)O)=C(COC(N)=O)CS[C@@H]21 [CEFOXITIN]
3. CN(C)c1ccc(O)c2c1C[C@H]1C[C@H]3[C@H](N(C)C)C(O)=C(C(N)=O)C(=O)[C@@]3(O)C(O)=C1C2=O [MINOCYCLINE]
4. O=C(N[C@H](CO)[C@H](O)c1ccc([N+](=O)[O-])cc1)C(Cl)Cl [CHLORAMPHENICOL]

1: 46; 2: 94; 3: 100; 4: 85

----------
Test system: Escherichia coli
PROCEDURE_SUMMARY: Antibacterial activity against marA-overproducing Escherichia coli CR1000 harboring inactivated ynfE gene assessed as MarA-mediated multidrug resistance level by measuring fold change in MIC relative to MarA-deficient Escherichia coli CR2000
Assay type: functional
MEASURE: Activity (%)
Numbers only, in %.

Some molecules with known Activity results, for comparison:
{"columns": ["MOLECULE", "Activity, %"],
 "data": [
  ["O=C(N[C@H](CO)[C@H](O)c1ccc([N+](=O)[O-])cc1)C(Cl)Cl [CHLORAMPHENICOL]", 93],
  ["CO[C@@]1(NC(=O)Cc2cccs2)C(=O)N2C(C(=O)O)=C(COC(N)=O)CS[C@@H]21 [CEFOXITIN]", 94],
  ["CN(C)c1ccc(O)c2c1C[C@H]1C[C@H]3[C@H](N(C)C)C(O)=C(C(N)=O)C(=O)[C@@]3(O)C(O)=C1C2=O [MINOCYCLINE]", 100]
]}

The molecule identified as CCn1cc(C(=O)O)c(=O)c2cc(F)c(N3CCNCC3)cc21 [NORFLOXACIN] registered its Activity at 68

----------
Field: Activity. Provide a value for each of the molecules that follow.
Tested on: Escherichia coli
PROCEDURE_SUMMARY: Antibacterial activity against marA-overproducing Escherichia coli CR1000 harboring inactivated acrA gene assessed as MarA-mediated multidrug resistance level by measuring fold decrease in MIC relative to MarA-deficient Escherichia coli CR2000
Format: functional
Design: scale not given: the % may be the effect or the level left
Numbers only, in %.

Some molecules with known Activity results, for comparison:
{"columns": ["SMILES_DATA", "TESTED_TARGET", "MEASURE", "DISPLAY_UNIT", "NUMERIC_VALUE"],
 "data": [
  ["CO[C@@]1(NC(=O)Cc2cccs2)C(=O)N2C(C(=O)O)=C(COC(N)=O)CS[C@@H]21", "Escherichia coli", "Activity", "%", 16],
  ["O=C(N[C@H](CO)[C@H](O)c1ccc([N+](=O)[O-])cc1)C(Cl)Cl", "Escherichia coli", "Activity", "%", 8],
  ["CN(C)c1ccc(O)c2c1C[C@H]1C[C@H]3[C@H](N(C)C)C(O)=C(C(N)=O)C(=O)[C@@]3(O)C(O)=C1C2=O", "Escherichia coli", "Activity", "%", 40]
]}

Lab note: next molecule to report on.
The molecule identified as "CCn1cc(C(=O)O)c(=O)c2cc(F)c(N3CCNCC3)cc21" registered its Activity at 0

----------
Field: Activity. Provide a value for each of the compounds that follow.
Tested on: Escherichia coli
PROCEDURE_SUMMARY: Antibacterial activity against marA-overproducing Escherichia coli CR1000 harboring inactivated recD gene assessed as MarA-mediated multidrug resistance level by measuring fold change in MIC relative to MarA-deficient Escherichia coli CR2000
Assay type: functional
Numbers only, in %.

Some compounds with known Activity results, for comparison:
{"columns": ["SMILES_DATA", "DISPLAY_UNIT", "NUMERIC_VALUE"],
 "data": [
  ["CO[C@@]1(NC(=O)Cc2cccs2)C(=O)N2C(C(=O)O)=C(COC(N)=O)CS[C@@H]21", "%", 80],
  ["CCn1cc(C(=O)O)c(=O)c2cc(F)c(N3CCNCC3)cc21", "%", 77],
  ["O=C(N[C@H](CO)[C@H](O)c1ccc([N+](=O)[O-])cc1)C(Cl)Cl", "%", 50]
]}

Lab note: next compound to report on.
The compound identified as "CN(C)c1ccc(O)c2c1C[C@H]1C[C@H]3[C@H](N(C)C)C(O)=C(C(N)=O)C(=O)[C@@]3(O)C(O)=C1C2=O" registered its Activity at 65

----------
Tested on: Escherichia coli
PROCEDURE_SUMMARY: Antibacterial activity against marA-overproducing Escherichia coli CR1000 harboring inactivated ompR gene assessed as MarA-mediated multidrug resistance level by measuring fold change in MIC relative to MarA-deficient Escherichia coli CR2000
Format: functional
MEASURE: Activity (%)
One number for each entry, in %.

Some compounds with known Activity results, for comparison:
{"columns": ["COMPOUND", "MEASURE", "NUMERIC_VALUE"],
 "data": [
  ["CN(C)c1ccc(O)c2c1C[C@H]1C[C@H]3[C@H](N(C)C)C(O)=C(C(N)=O)C(=O)[C@@]3(O)C(O)=C1C2=O [MINOCYCLINE]", "Activity", 100],
  ["O=C(N[C@H](CO)[C@H](O)c1ccc([N+](=O)[O-])cc1)C(Cl)Cl [CHLORAMPHENICOL]", "Activity", 93],
  ["CCn1cc(C(=O)O)c(=O)c2cc(F)c(N3CCNCC3)cc21 [NORFLOXACIN]", "Activity", 77]
]}

Tested on Escherichia coli: CO[C@@]1(NC(=O)Cc2cccs2)C(=O)N2C(C(=O)O)=C(COC(N)=O)CS[C@@H]21 [CEFOXITIN] . Observed Activity: 67

Cited source for all entries: ChEMBL document CHEMBL1687757
